Molecular target: TSSK1 (Homo sapiens, UniProt Q9BXA7)
Sequence (Q9BXA7 whole entry): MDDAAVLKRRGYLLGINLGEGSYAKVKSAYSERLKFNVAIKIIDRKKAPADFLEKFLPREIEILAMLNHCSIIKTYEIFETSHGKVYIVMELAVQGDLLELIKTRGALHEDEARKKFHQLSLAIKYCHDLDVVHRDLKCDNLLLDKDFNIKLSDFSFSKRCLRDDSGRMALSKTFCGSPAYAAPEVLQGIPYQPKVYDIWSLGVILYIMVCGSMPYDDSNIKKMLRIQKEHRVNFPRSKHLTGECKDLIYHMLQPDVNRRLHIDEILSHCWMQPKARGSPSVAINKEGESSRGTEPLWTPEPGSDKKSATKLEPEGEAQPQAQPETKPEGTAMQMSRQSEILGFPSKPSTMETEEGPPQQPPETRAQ
quantity_kind: IC50 (nM)
Give the number; nM is assumed, so skip it.

// assay TSSK1 (Homo sapiens, UniProt Q9BXA7), entry CC(C)C(C)CNCc1ccc2c(c1)[nH]/c(=N\C(=O)c1ccc(C3=CN=NC3)s1)n2CC(C)(C)O (stereo not shown) [BI 10N] , IC50 value = 28.6

* * *

Biological target: TRKA (Homo sapiens, UniProt P04629)
Construct: purchased Carna Biosciences
Sequence (P04629 33-796): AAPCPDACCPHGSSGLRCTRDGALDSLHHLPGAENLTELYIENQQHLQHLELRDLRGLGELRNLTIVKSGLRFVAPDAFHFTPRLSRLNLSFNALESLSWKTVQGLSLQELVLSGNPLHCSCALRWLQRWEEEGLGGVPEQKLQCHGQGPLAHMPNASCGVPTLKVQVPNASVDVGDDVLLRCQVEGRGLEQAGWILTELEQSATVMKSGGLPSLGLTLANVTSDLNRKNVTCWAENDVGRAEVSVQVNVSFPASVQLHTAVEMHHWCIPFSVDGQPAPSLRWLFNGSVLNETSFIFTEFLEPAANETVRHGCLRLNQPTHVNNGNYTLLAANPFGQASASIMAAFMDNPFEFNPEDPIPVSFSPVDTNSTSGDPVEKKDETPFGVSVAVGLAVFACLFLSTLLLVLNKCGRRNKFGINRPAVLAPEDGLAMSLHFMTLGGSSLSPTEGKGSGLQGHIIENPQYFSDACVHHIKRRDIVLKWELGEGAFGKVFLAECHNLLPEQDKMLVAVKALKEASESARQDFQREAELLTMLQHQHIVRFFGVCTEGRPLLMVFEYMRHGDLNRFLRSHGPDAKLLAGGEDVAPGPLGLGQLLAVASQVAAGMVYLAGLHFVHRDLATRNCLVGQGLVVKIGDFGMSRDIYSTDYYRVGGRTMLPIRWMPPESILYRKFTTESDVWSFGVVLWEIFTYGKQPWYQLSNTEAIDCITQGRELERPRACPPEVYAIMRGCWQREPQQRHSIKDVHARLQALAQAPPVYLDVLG
Assay: cell-free kinase assay
Type: biochemical
Settings: TRKA; Table 2, by Carna Biosciences
quantity_kind: pIC50
// scale note: pIC50 = -log10(conc_M); give the bare number

Recorded pIC50 (compound CC(C)C(C)CNCc1ccc2c(c1)[nH]/c(=N\C(=O)c1ccc(C3=CN=NC3)s1)n2CC(C)(C)O (stereo not shown) [BI 10N] ): 9.34
